target: CD137 (Homo sapiens, UniProt Q07011); assay: CD137 reporter assay (Promega, Jurkat cells) in co-culture with EphA2-expressing tumor cells (A549, PC3, HT29); type: cell-based; parameters: host or cells: Jurkat reporter cells; conditions: CD137 reporter coculture assay with PC3 tumor cells
Sequence (Q07011 24-255): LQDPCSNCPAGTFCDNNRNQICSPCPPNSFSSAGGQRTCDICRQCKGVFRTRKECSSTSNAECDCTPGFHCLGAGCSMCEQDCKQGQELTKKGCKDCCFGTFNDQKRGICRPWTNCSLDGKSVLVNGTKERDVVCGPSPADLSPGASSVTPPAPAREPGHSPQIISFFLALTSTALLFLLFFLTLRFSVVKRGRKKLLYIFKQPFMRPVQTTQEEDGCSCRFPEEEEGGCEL
Starred links: 1 amine or outer side, 2 acyl side, 3 side chain; linkers in the order of their positions; H or OH if unused. Positions of bridges follow the written chain, without caps; N, C: chain ends. Non-standard residues stand in square brackets, D forms with d. Chains are numbered I, II in the order given. X1 = O=C(CCOCCOCCOCCN(CCOCCOCCOCCn1cc(CCC(=O)[*:2])nn1)CCOCCOCCOCCn1cc(CCC(=O)[*:3])nn1)[*:1]; TATA = O=C(CC[*:1])N1CN(C(=O)CC[*:2])CN(C(=O)CC[*:3])C1; Dip = N[C@H](C(=O)O)C(c1ccccc1)c1ccccc1; Hyp = O=C(O)[C@@H]1C[C@@H](O)CN1; hArg = N=C(N)NCCCC[C@H](N)C(=O)O; tBuAla = CC(C)(C)C[C@H](N)C(=O)O; Nle = CCCC[C@H](N)C(=O)O
property label: Emax (fold induction over background)
Enter the number alone.

substance	Emax (fold induction over background)
I: Ac-C[Hyp]LVNPLCL[Dip]P[dD]WTC[dK]-NH2 / II: Ac-C[tBuAla]PE[dK]PYCFADPY[Nle]CA-NH2 / III: Ac-C[tBuAla]PE[dK]PYCFADPY[Nle]CA-NH2 (linker I:1-I:8-I:15, II:1-II:8-II:15, III:1-III:8-III:15 via TATA; linker I:16-II:5-III:5 via X1; C-terminus assumed) [BCY13274]	47.43
I: A[hArg]DC[Hyp]LVNPLCL[Dip]P[dD]W[hArg]C-NH2 / II: Ac-C[tBuAla]PE[dK]PYCFADPY[Nle]CA-NH2 / III: Ac-C[tBuAla]PE[dK]PYCFADPY[Nle]CA-NH2 (linker I:4-I:11-I:18, II:1-II:8-II:15, III:1-III:8-III:15 via TATA; linker I:N-II:5-III:5 via X1) [BCY13054]	36.53

Suppose we examine the substance I: A[hArg]DC[Hyp]LVNPLCL[Dip]P[dD]WTC-NH2 / II: Ac-C[tBuAla]PE[dK]PYCFADPY[Nle]CA-NH2 / III: Ac-C[tBuAla]PE[dK]PYCFADPY[Nle]CA-NH2 (linker I:4-I:11-I:18, II:1-II:8-II:15, III:1-III:8-III:15 via TATA; linker I:N-II:5-III:5 via X1) [BCY13047] ; what Emax (fold induction over background) value has been reported?
46.43
